Biological target: T1, NHERF1 PDZ1 domain (human, UniProt O14745 1-139)
T1 sequence (looked up): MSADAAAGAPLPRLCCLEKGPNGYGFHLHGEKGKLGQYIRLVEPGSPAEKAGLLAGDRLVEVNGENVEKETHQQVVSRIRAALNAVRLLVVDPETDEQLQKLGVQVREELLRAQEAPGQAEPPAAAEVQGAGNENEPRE
Experiment: ITC
MEASURED_PROPERTY: pKd
One number for each entry, as −log10 of the molar value.

Query :: Which pKd reading was recorded for the binder TEEEVQDTRL [CFTR10] ?
Result :: 6.10
